# targetDesc: human cathepsin B (Homo sapiens)
measurementName: IC50

Provide the reported IC50 (system: human cathepsin B (Homo sapiens)) for "CC(C)C[C@H](NC(=O)c1cc2c(F)cccc2[nH]1)C(=O)NN(C[C@@H]1CCNC1=O)C(=O)[C@H](F)Cl" > 10 µM

----------
# targetDesc: SARS-CoV-2 3CL^pro (Severe acute respiratory syndrome coronavirus 2, UniProt P0DTD1)
# Format: biochemical
measurementName: pIC50
Give bare numbers, as −log10 of the molar value.

Read the entry COc1cccc2[nH]c(C(=O)N[C@@H](CC(C)C)C(=O)NN(C[C@H]3CCNC3=O)C(=O)[C@H](F)Cl)cc12 [10b] and write its reported pIC50. 7.81
